Below, each of the compounds is paired with its reported EC90 value.
# tested system: Nonstructural protein 5A (Hepatitis C virus) (UniProt Q5L478)
# Sequence (Q5L478 as listed by the source): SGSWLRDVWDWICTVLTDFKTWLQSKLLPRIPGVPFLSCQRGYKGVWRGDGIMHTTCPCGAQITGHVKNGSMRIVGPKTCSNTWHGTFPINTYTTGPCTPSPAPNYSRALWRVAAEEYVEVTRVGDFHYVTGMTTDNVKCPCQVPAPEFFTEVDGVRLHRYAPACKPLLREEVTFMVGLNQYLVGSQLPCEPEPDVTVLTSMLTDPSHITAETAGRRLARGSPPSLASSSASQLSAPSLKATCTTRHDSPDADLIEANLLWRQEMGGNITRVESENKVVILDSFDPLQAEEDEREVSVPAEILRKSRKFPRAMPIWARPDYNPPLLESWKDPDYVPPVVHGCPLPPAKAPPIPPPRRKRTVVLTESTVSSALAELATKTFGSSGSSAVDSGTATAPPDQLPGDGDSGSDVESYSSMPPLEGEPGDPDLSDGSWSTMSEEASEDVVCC
# test description: Inhibition of HCV GT1a NS5A assessed as suppression of replicon RNA level by real-time PCR analysis
# condition summary: Hepatitis C virus subtype 1a
Answer with a number only, understood to be in pM.

Example cases with answers are listed next.
COC(=O)N[C@H](C(=O)N1CCC[C@H]1c1ncc(-c2ccc3c(c2)OCn2c-3cc3cc(-c4cnc([C@@H]5CCCN5C(=O)[C@@H](NC(=O)OC)C(C)C)[nH]4)ccc32)[nH]1)C(C)C = 20
COC(=O)N[C@H](C(=O)N1CCC[C@H]1c1ncc(-c2ccc3c(c2)OC(c2cc(OC)cc(OC)c2)n2c-3cc3cc(-c4cnc([C@@H]5CCCN5C(=O)[C@@H](NC(=O)OC)C(C)C)[nH]4)ccc32)[nH]1)C(C)C (stereo not given in full) = 4
COC(=O)N[C@H](C(=O)N1CCC[C@H]1c1ncc(-c2cc(F)c3c(c2)OC(c2cc(Cl)cc(OC)c2)n2c-3cc3cc(-c4cnc([C@@H]5CCCN5C(=O)[C@@H](NC(=O)OC)C(C)C)[nH]4)ccc32)[nH]1)C(C)C (stereo not given in full) = 10
COC(=O)N[C@H](C(=O)N1CCC[C@H]1c1ncc(-c2ccc3c(c2)cc2n3C(c3cccc(OC)c3)Oc3cc(-c4cnc([C@@H]5C[C@@H](F)CN5C(=O)[C@@H](NC(=O)OC)C(C)C)[nH]4)cc(F)c3-2)[nH]1)C(C)C (stereo not given in full) = 2
COC(=O)N[C@H](C(=O)N1CCC[C@H]1c1ncc(-c2ccc3c(c2)cc2n3[C@H](c3ccccc3)Oc3c-2ccc(-c2cnc([C@@H]4CCCN4C(=O)[C@@H](NC(=O)OC)C(C)C)[nH]2)c3F)[nH]1)C(C)C = 40
COC(=O)N[C@H](C(=O)N1CCC[C@H]1c1ncc(-c2ccc3c(c2)OCn2c-3c(C3CC3)c3cc(-c4cnc([C@@H]5CCCN5C(=O)[C@@H](NC(=O)OC)C(C)C)[nH]4)ccc32)[nH]1)C(C)C = 30
COC(=O)N[C@H](C(=O)N1CCC[C@H]1c1ncc(-c2cc(F)c3c(c2)OC(c2ccccc2)n2c-3cc3cc(-c4cnc([C@@H]5C[C@@H](F)CN5C(=O)[C@@H](NC(=O)OC)C(C)C)[nH]4)ccc32)[nH]1)C(C)C (mixture of isomers) = 3
COC(=O)N[C@H](C(=O)N1CCC[C@H]1c1ncc(-c2ccc3c(c2)c(F)c2n3C(c3ccccc3)Oc3cc(-c4cnc([C@@H]5C[C@@H](F)CN5C(=O)[C@@H](NC(=O)OC)C(C)C)[nH]4)ccc3-2)[nH]1)C(C)C (stereo not given in full) = 2

Challenge: Look up and report measured EC90 for this entry: COC(=O)N[C@H](C(=O)N1CCC[C@H]1c1ncc(-c2cc3c(c(-c4ccccc4)c2)-c2cc4cc(-c5cnc([C@@H]6CCCN6C(=O)[C@@H](NC(=O)OC)C(C)C)[nH]5)ccc4n2CO3)[nH]1)C(C)C
Response given: 1000

Challenge: Return EC90 for the following compound: COC(=O)N[C@H](C(=O)N1CCC[C@H]1c1ncc(-c2cc(F)c3c(c2)OC(c2cc(OC)cc(OC)c2)n2c-3cc3cc(-c4cnc([C@@H]5CCCN5C(=O)[C@@H](NC(=O)OC)C(C)C)[nH]4)ccc32)[nH]1)C(C)C (stereo not given in full)
Response given: 4
